assay_method_text: Quorum luxo inducers, light production, v cholerae bh1651 luxod47e, confirmatory dose response (AID 624254)
test_settings: V. cholerae BH1651 luxOD47E, luciferase light induction, 6 h; at 50 µM (top of the series)
Active and inactive are the calls of the source. How the calls were made is not given here.
quantity_name: activation (light increase)

molecule | obs_value
N#CCSc1ccccc1NC(=O)COC(=O)CCNC(=O)c1ccc([N+](=O)[O-])cc1 | inactive
COc1ccc(Cc2nn[nH]n2)cc1 | inactive
COc1ccc(OC)c(NC(=O)COC(=O)c2cc3c(s2)CCC3)c1 | inactive
Cn1c(CNc2cccc(Cl)c2)nnc1SCC(=O)OC1CCCCC1 | inactive
CCOC(=O)CSc1nc(C)cc(C)c1C#N | inactive
CCc1ccc2c(c1)c1nnc(NN)nc1n2CC | inactive

Looking up Cc1ccc(OCC(=O)NC2CCS(=O)(=O)C2)c([N+](=O)[O-])n1 (centres undefined) , I see its activation (light increase) listed as inactive
